- Test system: SK-MEL-2 melanoma
- assay-name: NCI tumour cell line growth inhibition, 48 h
recorded-metric: TGI

Known results for compounds:
{"compound": "CC1(C)CCSC(/C=C/c2ccccc2)=N1", "test-system": "SK-MEL-2 melanoma", "recorded-metric": "TGI", "result": "28.8 µM"}
{"compound": "COc1ccc2c(c1)c(Cc1c(C)n(C)c3ccc(OC)cc13)c(C)n2C", "test-system": "SK-MEL-2 melanoma", "recorded-metric": "TGI", "result": "> 100 µM"}
{"compound": "O=C1N=C2c3c(sc4c3CCCC4)N=CN2C1N=Nc1ccc(Cl)cc1 (stereo not given)", "test-system": "SK-MEL-2 melanoma", "recorded-metric": "TGI", "result": "> 100 µM"}
{"compound": "O=[N+]([O-])c1ccc(Cc2nc3ccccc3s2)cc1", "test-system": "SK-MEL-2 melanoma", "recorded-metric": "TGI", "result": "> 100 µM"}
{"compound": "COc1cc2c(cc1OCCCCCOc1cc(-c3ccc(F)cc3)nc(C)n1)N=C[C@@H]1CCCN1C2=O", "test-system": "SK-MEL-2 melanoma", "recorded-metric": "TGI", "result": "> 68.7 µM"}

Provide TGI for all items below, preserving their order.
1. C[C@]12CC[C@H]3[C@@H](CCC4=CC(=O)CC[C@@H]43)[C@@H]1CC[C@@H]2OC1(O)C(=O)c2ccccc2C1=O
2. O=C(CNC(=O)OCc1ccccc1)NCCCCC(NC(=O)OCc1ccccc1)C(=O)O (stereo not given)
3. COc1ccc(/C=C/C(=O)c2ccc(Nc3ncnc4ccccc34)cc2)cc1OC
4. O=c1cc/c(=N\Nc2ccccc2)c(=O)/c1=N/Nc1ccccc1
5. CN1CC=C(OP(=O)(NCc2ccccc2)N(CCCl)CCCl)CC1 (stereo not given)

Result:
["> 100 µM", "> 100 µM", "44.8 µM", "> 50 µM", "> 100 µM"]
